TEST_METHOD_NOTES: Distribution coefficient, log D of the compound
Format: physicochemical
MEASUREMENT_CONTEXT: octanol/water
MEASUREMENT_LABEL: logD
Could you respond with only the numeric value?

In: Find the recorded logD belonging to c1ccc(-c2nc3ccccc3nc2-c2ccc(CN3CCC(c4cc(-c5ccncc5)[nH]n4)CC3)cc2)cc1 and report it.
Out: 2.71

---

TEST_METHOD_NOTES: Drug concentration in mouse blood at 50 mg/kg, ip administered three times a day after 10 hrs
Format: ADME, organism-based
Set-up: dose 50 mg/kg, route intraperitoneal
MEASUREMENT_CONTEXT: whole blood, read-out: Drug uptake
MEASUREMENT_LABEL: concentration at 10 h (µM)
The reply should contain only the number, in µM.

In: Bench note: what concentration at 10 h did O=C1N=CC=C2N=C(c3ccc(CN4CCC(c5n[nH]c(-c6ccccn6)n5)CC4)cc3)C(c3ccccc3)=CC12 (stereo unspecified) show?
Out: 13

---

TESTED_TARGET: RAC-beta serine/threonine-protein kinase (Homo sapiens)
Sequence (P31751 whole entry): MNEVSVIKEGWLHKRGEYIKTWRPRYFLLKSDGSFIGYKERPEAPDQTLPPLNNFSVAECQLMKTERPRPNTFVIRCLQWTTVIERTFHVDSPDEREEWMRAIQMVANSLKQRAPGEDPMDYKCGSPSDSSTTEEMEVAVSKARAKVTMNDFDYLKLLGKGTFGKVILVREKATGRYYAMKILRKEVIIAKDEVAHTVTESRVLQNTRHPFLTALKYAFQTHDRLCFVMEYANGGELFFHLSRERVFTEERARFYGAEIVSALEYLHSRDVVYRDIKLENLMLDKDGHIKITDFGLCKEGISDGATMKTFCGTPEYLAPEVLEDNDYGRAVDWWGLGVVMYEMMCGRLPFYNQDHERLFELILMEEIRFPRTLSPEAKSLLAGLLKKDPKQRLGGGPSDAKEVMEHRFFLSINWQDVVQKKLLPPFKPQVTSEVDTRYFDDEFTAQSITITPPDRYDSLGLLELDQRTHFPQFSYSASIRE
TEST_METHOD_NOTES: Inhibition of Akt2
MEASUREMENT_LABEL: IC50 (nM)
Write it as a number; the unit nM goes unstated.

In: Reported IC50 for c1ccc(-c2cc3cccnc3nc2-c2ccc(CN3CCC(c4cc(-c5ccncc5)[nH]n4)CC3)cc2)cc1 : what is it?
Out: 260

In: For the compound O=C1N=CC=C2N=C(c3ccc(CN4CCC(c5n[nH]c(-c6ccccn6)n5)CC4)cc3)C(c3ccccc3)=CC12 (stereo unspecified) , what IC50 is on record?
Out: 42

In: Look up IC50 for this compound: c1ccc(-c2cc3cccnc3nc2-c2ccc(CN3CCC(c4cc(-c5cccnc5)[nH]n4)CC3)cc2)cc1
Out: 900

In: Which IC50 is listed for c1ccc(-c2nc3ccccc3nc2-c2ccc(CN3CCC(c4cc(-c5ccncc5)[nH]n4)CC3)cc2)cc1 ?
Out: 1080

In: Requested field: IC50. Item: c1ccc(-c2cc3cnccc3nc2-c2ccc(CN3CCC(c4n[nH]c(-c5ccccn5)n4)CC3)cc2)cc1
Out: 210

In: Given the entry O=c1ccc(-c2cc(C3CCN(Cc4ccc(-c5nc6ncccc6cc5-c5ccccc5)cc4)CC3)n[nH]2)c[nH]1 , report its measured IC50.
Out: 83

In: So what's the measured IC50 for this one? c1ccc(-c2cc3ccncc3nc2-c2ccc(CN3CCC(c4n[nH]c(-c5ccccn5)n4)CC3)cc2)cc1
Out: 160

In: # query: IC50 of entry c1ccc(-c2cc3cccnc3nc2-c2ccc(CN3CCC(c4cc(-c5ccccn5)[nH]n4)CC3)cc2)cc1
Out: 280

In: Field request: IC50 | item: c1ccc(-c2cc3ncccc3nc2-c2ccc(CN3CCC(c4n[nH]c(-c5ccccn5)n4)CC3)cc2)cc1
Out: 70

In: Dear colleague, I am looking for the recorded IC50 of the following compound: c1ccc(-c2cc(C3CCN(Cc4ccc(-c5nc6ncccc6cc5-c5ccccc5)cc4)CC3)n[nH]2)cc1
Out: 1600

In: // IC50 lookup, key: c1ccc(-c2cc3cccnc3nc2-c2ccc(CN3CCC(c4n[nH]c(-c5ccccn5)n4)CC3)cc2)cc1
Out: 220

---

TESTED_TARGET: RAC-alpha serine/threonine-protein kinase (Homo sapiens, UniProt P31749)
Sequence (P31749 whole entry): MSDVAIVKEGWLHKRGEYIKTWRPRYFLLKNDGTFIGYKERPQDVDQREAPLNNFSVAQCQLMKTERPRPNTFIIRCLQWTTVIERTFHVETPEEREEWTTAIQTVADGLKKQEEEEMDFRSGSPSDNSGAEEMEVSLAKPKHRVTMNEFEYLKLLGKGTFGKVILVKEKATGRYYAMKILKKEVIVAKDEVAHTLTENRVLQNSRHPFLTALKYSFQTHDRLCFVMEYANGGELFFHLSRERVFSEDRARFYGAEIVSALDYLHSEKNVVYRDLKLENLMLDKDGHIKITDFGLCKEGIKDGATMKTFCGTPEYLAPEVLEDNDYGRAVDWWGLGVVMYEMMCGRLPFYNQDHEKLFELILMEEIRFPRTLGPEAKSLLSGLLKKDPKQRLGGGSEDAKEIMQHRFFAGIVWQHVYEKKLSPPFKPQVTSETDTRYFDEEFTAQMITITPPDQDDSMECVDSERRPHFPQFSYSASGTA
TEST_METHOD_NOTES: Inhibition of Akt1
MEASUREMENT_LABEL: log10 IC50 (log10 of the value in nM)
Parameter value (number): base-10 log of IC50 in nM.

In: Would you kindly share the measured log10 IC50 for c1ccc(-c2cc3cccnc3nc2-c2ccc(CN3CCC(c4n[nH]c(-c5ccccn5)n4)CC3)cc2)cc1 ?
Out: 1.65

In: Requested read-out: log10 IC50. Entry: c1ccc(-c2cc3cnccc3nc2-c2ccc(CN3CCC(c4n[nH]c(-c5ccccn5)n4)CC3)cc2)cc1
Out: 0.87

In: # get_value(readout='log10 IC50', item= c1ccc(-c2cc3cccnc3nc2-c2ccc(CN3CCC(c4cc(-c5ccccn5)[nH]n4)CC3)cc2)cc1 )
Out: 1.64

In: Please give the measured log10 IC50 for this molecule: c1ccc(-c2nc3ccccc3nc2-c2ccc(CN3CCC(c4cc(-c5ccncc5)[nH]n4)CC3)cc2)cc1
Out: 1.88

In: I'd like to know its log10 IC50. The molecule in question is c1ccc(-c2cc(C3CCN(Cc4ccc(-c5nc6ncccc6cc5-c5ccccc5)cc4)CC3)n[nH]2)cc1
Out: 2.67

In: Would you mind telling me what log10 IC50 value was observed for c1ccc(-c2cc3ncccc3nc2-c2ccc(CN3CCC(c4n[nH]c(-c5ccccn5)n4)CC3)cc2)cc1 ?
Out: 0.75

In: What value of measured log10 IC50 is listed for c1ccc(-c2cc3cccnc3nc2-c2ccc(CN3CCC(c4cc(-c5ccncc5)[nH]n4)CC3)cc2)cc1 ?
Out: 2.08

In: Requested field: log10 IC50. Item: O=c1ccc(-c2cc(C3CCN(Cc4ccc(-c5nc6ncccc6cc5-c5ccccc5)cc4)CC3)n[nH]2)c[nH]1
Out: 1.53

In: Which log10 IC50 is reported for this molecule? c1ccc(-c2cc3cccnc3nc2-c2ccc(CN3CCC(c4cc(-c5cccnc5)[nH]n4)CC3)cc2)cc1
Out: 2.40

In: Find the recorded log10 IC50 belonging to c1ccc(-c2cc3ccncc3nc2-c2ccc(CN3CCC(c4n[nH]c(-c5ccccn5)n4)CC3)cc2)cc1 and report it.
Out: 1.32

In: Would you kindly share the measured log10 IC50 for O=C1N=CC=C2N=C(c3ccc(CN4CCC(c5n[nH]c(-c6ccccn6)n5)CC4)cc3)C(c3ccccc3)=CC12 (stereo unspecified) ?
Out: 0.54
